Reference for the values: the supplement of paper PMC10981050

This section presents molecules with their documented cell viability values.
System: MARIMO;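 further: after 48 h exposure read by CellTiter-Glo luminescence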
Assay: cell viability relative to vehicle control; higher = less cytotoxic
Details: 10 µM; SRSF2 genotype: SRSF2 wt/wt
Hi! Could you send only the number? It should be in %, unit omitted.

# molecule, target.or.system, measurement.kind, recorded.number
data = [
    ("CC1=CC(=O)[C@@H]2C[C@H]1C2(C)C [(-)-Verbenone]", "MARIMO", "cell viability", 98.8),
    ("COC(=O)CCC(C)C1CCC2C3C(O)CC4CC(O)CCC4(C)C3CC(O)C12C (stereo not drawn) [Methyl Cholate]", "MARIMO", "cell viability", 112),
    ("COc1cc(Nc2ncc(F)c(Nc3ccc4c(n3)NC(=O)C(C)(C)O4)n2)cc(OC)c1OC", "MARIMO", "cell viability", 85.8),
    ("CN1CCc2nc(C(=O)N[C@@H]3C[C@@H](C(=O)N(C)C)CC[C@@H]3NC(=O)C(=O)Nc3ccc(Cl)cn3)sc2C1 [Edoxaban]", "MARIMO", "cell viability", 102),
    ("CC(=O)Oc1c(C)c(C)c2c(c1C)CCC(C)(CCC[C@H](C)CCC[C@H](C)CCCC(C)C)O2 (stereo partly drawn) [Vitamin E Acetate]", "MARIMO", "cell viability", 103),
]

# returns recorded cell viability (system: MARIMO) for `CSc1cccc(Nc2ncc3cc(-c4c(Cl)cccc4Cl)c(=O)n(C)c3n2)c1`;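 further: after 48 h exposure read by CellTiter-Glo luminescence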
65.4

Nc1nc(Cl)nc2c1ncn2[C@@H]1O[C@H](CO)[C@@H](O)[C@@H]1F [Clofarabine] , same question.
8.77

Cc1ccc(Nc2nccc(N(C)c3ccc4c(C)n(C)nc4c3)n2)cc1S(N)(=O)=O [Pazopanib] , same question.
104
